ASSAY_NOTES: Pharmacokinetics of released PEGylated protease inhibitor following P.O. administration of prodrugs in rats
Format: in vivo, male Sprague-Dawley rats
CONDITIONS_USED: mPEG6-atazanavir in plasma after PO administration of mPEG6-ATV or of the listed prodrug, rats (n = 4-5)
VALUE_KIND: AUCall Mean

molecule="CCOCOC(CN(Cc1ccc(-c2ccccn2)cc1)NC(=O)C(NC(=O)OC)C(C)(C)C)C(Cc1ccccc1)NC(=O)C(NC(=O)OCCOCCOCCOCCOCCOCCOC)C(C)(C)C (stereo not shown)" readout_value="202 ng·h/mL"
molecule="CCOC(C)OC(CN(Cc1ccc(-c2ccccn2)cc1)NC(=O)C(NC(=O)OC)C(C)(C)C)C(Cc1ccccc1)NC(=O)C(NC(=O)OCCOCCOCCOCCOCCOCCOC)C(C)(C)C (mixture of isomers)" readout_value="137 ng·h/mL"
molecule="COCCOCCOCCOCCOCCOCCOC(=O)NC(C(=O)NC(Cc1ccccc1)C(CN(Cc1ccc(-c2ccccn2)cc1)NC(=O)C(NC(=O)OC)C(C)(C)C)OCOC)C(C)(C)C (stereo not shown)" readout_value="55.8 ng·h/mL"

Shifting focus to the molecule that follows.
Consider the molecule shown here: COCCOCCOCCOCCOCCOCCOC(=O)NC(C(=O)NC(Cc1ccccc1)C(CN(Cc1ccc(-c2ccccn2)cc1)NC(=O)C(NC(=O)OC)C(C)(C)C)OP(=O)(O)O)C(C)(C)C (stereo not shown) [mPEG6-ATV-phosphate, mPEG6-atazanavir phosphate] What is its recorded AUCall Mean?
12.1 ng·h/mL
